system-name: HDAC6 human recombinant (Homo sapiens, UniProt Q9UBN7)
Sequence (Q9UBN7 1-1215): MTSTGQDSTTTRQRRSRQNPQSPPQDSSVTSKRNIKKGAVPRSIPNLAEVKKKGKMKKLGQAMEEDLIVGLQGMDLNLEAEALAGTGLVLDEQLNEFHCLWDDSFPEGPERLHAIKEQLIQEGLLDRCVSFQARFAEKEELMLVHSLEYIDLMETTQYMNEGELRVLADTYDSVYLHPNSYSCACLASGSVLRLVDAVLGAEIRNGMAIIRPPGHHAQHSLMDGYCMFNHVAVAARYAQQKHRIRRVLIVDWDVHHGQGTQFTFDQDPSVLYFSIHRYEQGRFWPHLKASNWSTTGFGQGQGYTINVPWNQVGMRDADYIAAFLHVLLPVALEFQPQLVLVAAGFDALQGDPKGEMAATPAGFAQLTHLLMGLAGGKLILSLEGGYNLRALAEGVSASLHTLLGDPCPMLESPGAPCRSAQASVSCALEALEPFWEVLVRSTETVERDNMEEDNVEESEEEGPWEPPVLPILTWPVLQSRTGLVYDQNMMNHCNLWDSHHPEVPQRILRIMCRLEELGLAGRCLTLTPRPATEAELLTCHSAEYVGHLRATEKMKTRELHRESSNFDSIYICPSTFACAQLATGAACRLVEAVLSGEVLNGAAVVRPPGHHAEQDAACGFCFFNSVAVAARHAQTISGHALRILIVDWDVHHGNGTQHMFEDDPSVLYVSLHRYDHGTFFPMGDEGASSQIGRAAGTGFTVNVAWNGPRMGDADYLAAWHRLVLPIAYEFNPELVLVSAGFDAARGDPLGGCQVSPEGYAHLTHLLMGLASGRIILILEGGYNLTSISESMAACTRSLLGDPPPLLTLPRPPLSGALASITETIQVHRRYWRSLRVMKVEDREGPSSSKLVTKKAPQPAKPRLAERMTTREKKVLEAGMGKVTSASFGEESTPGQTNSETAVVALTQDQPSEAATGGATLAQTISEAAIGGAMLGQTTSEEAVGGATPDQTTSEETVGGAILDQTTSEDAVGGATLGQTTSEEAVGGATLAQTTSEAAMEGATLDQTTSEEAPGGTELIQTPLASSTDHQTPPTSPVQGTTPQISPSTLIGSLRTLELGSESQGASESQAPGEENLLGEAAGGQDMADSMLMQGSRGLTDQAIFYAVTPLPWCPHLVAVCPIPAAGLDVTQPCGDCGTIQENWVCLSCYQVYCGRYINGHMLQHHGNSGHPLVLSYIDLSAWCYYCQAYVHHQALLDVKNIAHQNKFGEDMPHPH
test-name: Inhibition of HDAC6 activity (fluorimetric assay)
condition-details: test concentrations 0.1, 1, 10, 100 and 1000 nM; 37° C., 60 minutes
pIC50: −log10 of the molar value.
Give Condition met when the value for pIC50 is at least 8. Give Condition not met when it is less.

Assess whether reported pIC50 for O=C(NO)c1ccc(Cn2ccc3cc(C4CCN(Cc5cccc(C(F)(F)F)c5)CC4)cnc32)cc1 [Compound 871] sits at 8 or higher.
Condition not met

Likewise for Nc1cccc(-c2ccnc3c2ccn3Cc2ccc(C(=O)NO)cc2)c1 [Compound 722] ?
Condition met

Likewise for O=C(O)CN1CCC(c2ccnc3c2ccn3Cc2ccc(C(=O)NO)cc2)CC1 [Compound 917] ?
Condition met

* * *

system-name: HDAC6 human recombinant (Homo sapiens)
test-name: Inhibition of HDAC6 activity (fluorimetric assay)
condition-details: test concentrations 0.1, 1, 10, 100 and 1000 nM; 37° C., 60 minutes
pIC50: −log10 of the molar value.
Give True when the value for pIC50 is at least 8. Give False when it is less.

Assess whether reported pIC50 for CC(C)(C)OC(=O)N1CC=C(c2cnc3ccn(Cc4ccc(C(=O)NO)cc4)c3c2)CC1 sits at 8 or higher.
True

Likewise for CC(O)(CO)CN1CCC(c2cnc3c(ccn3Cc3ccc(C(=O)NO)cc3)c2)CC1 (stereo not shown) ?
True

Likewise for O=C(NO)c1ccc(Cn2ccc3cc(C4=CCN(CC5CCCCC5)CC4)cnc32)cc1 ?
False

Likewise for CC(C)(C)OC(=O)N1CCC(F)(CN2CCN(c3ccnc4c3ccn4Cc3ccc(C(=O)NO)cc3)CC2)CC1 ?
False

Origin of values: patent US9650379B2
